# assay_system: Aminopeptidase N (Plasmodium falciparum (isolate 3D7))
# protocol: PfM1AAP inhibitors in parasite lysate, late-stage follow-up, cell lysate, fluorescence, malaria cell lysate, powder samples (AID 492976)
# run_parameters: P. falciparum lysate, H-Arg-NHMec fluorogenic substrate; at 5 µM; stronger effect = higher value
Listing: inhibition of selected compounds
Field format: number, assumed %, no unit text.

Worked cases, answers included:
{"columns": ["compound", "assay_system", "inhibition, %"],
 "data": [
  ["O=C(NCCC1=CCCCC1)C1CCN(S(=O)(=O)c2ccc(Br)s2)CC1", "Aminopeptidase N (Plasmodium falciparum (isolate 3D7))", 13],
  ["O=C1N=c2ccccc2=C1c1sc(=S)n(NC(=O)c2ccccc2)c1O", "Aminopeptidase N (Plasmodium falciparum (isolate 3D7))", 0],
  ["COc1ccccc1-c1nc2ccccc2c(=O)n1NC(=O)c1cccs1", "Aminopeptidase N (Plasmodium falciparum (isolate 3D7))", 0],
  ["O=C1N=c2ccccc2=C1c1sc(=S)n(NC(=O)c2cccc(O)c2)c1O", "Aminopeptidase N (Plasmodium falciparum (isolate 3D7))", 17],
  ["O=C(O)CCC(=O)N1N=C(c2c(-c3ccccc3)c3cc(Cl)ccc3[nH]c2=O)CC1c1ccco1 (stereo not drawn)", "Aminopeptidase N (Plasmodium falciparum (isolate 3D7))", 2]
]}

Asked: What value of inhibition has been recorded for this entry: CC(=O)N1N=C(c2c(O)n(C)c(=O)n(C)c2=O)CC1c1ccccc1 (stereo not drawn)
Given back: 0

Asked: What value of inhibition has been recorded for this entry: O=C(NCc1cccc(F)c1)C1CCN(S(=O)(=O)Cc2ccccc2)CC1
Given back: 35

Asked: What value of inhibition has been recorded for this entry: O=C(Nn1c(C2CCC2)nc2ccccc2c1=O)c1cccs1
Given back: 0

Asked: What value of inhibition has been recorded for this entry: O=C1/C(=C/c2cccs2)SC(=S)N1NS(=O)(=O)c1ccccc1
Given back: 0

Asked: What value of inhibition has been recorded for this entry: O=C(O)CCC(=O)N1N=C(c2c(-c3ccccc3)c3cc(Cl)ccc3[nH]c2=O)CC1c1cccs1 (stereo not drawn)
Given back: 3

Asked: What value of inhibition has been recorded for this entry: COc1ccc(C2CC(c3c(-c4ccccc4)c4cc(Cl)ccc4[nH]c3=O)=NN2C(=O)CCC(=O)O)cc1 (stereo not drawn)
Given back: 0

Asked: What value of inhibition has been recorded for this entry: COc1ccc(OC)c(/C=C2\SC(=S)N(C(C(=O)O)c3ccccc3)C2=O)c1 (stereo not drawn)
Given back: 0

Asked: What value of inhibition has been recorded for this entry: O=C(NCc1ccco1)C1CCCN(S(=O)(=O)c2cccc3nonc23)C1 (stereo not drawn)
Given back: 0
